Hello, the source for this data is PubChem BioAssay (NCI), in case you need it.

System: SNB-75 CNS
Experiment: NCI tumour cell line growth inhibition, 48 h
Measured Attribute: TGI

compound=Cc1cc(N2CCCCC2)nc2ccc(Cc3ccc4nc(N5CCCCC5)cc(C)c4c3)cc12 target_or_system="SNB-75 CNS" measured_attribute=TGI recorded_value="> 100 µM"
compound=CN1CCN(CCCOc2ccc3nc(Nc4ccc(F)c(F)c4)ccc3c2)CC1 target_or_system="SNB-75 CNS" measured_attribute=TGI recorded_value="4.05 µM"
compound=COc1c(OC)c(OC)c2c(=O)cc(-c3ccc(OC(C)C)cc3)oc2c1OC target_or_system="SNB-75 CNS" measured_attribute=TGI recorded_value="> 49.9 µM"
compound="CCOC(=O)[C@@]12C(C)=CC(=O)O[C@]1(C)C1C(=O)NC(=O)C12 (stereo not given in full)" target_or_system="SNB-75 CNS" measured_attribute=TGI recorded_value="> 100 µM"
compound="CCOC(=O)C1CCC(=O)N1C(=O)c1cccc(Cl)c1 (stereo not given)" target_or_system="SNB-75 CNS" measured_attribute=TGI recorded_value="> 100 µM"
